Each recorded value in this set is attributed to ChEMBL document CHEMBL5365500.

System: Enterococcus faecium
Assay: Antimicrobial activity against antibiotic-resistant Enterococcus faecium ATCC 700221 assessed as inhibition of visible growth measured after 20 to 24 hrs incubation by CLSI method
Format: functional
Details: time 20-24 hrs
Property Name: MIC (µg/mL)
Form entry: value (µg/mL) — number only.

Give MIC only, for "O=C(O)c1ccc(-n2cc(CNc3ccc(Cl)c(Cl)c3)c(-c3ccc(F)c(F)c3)n2)cc1" , using Enterococcus faecium data.
2

Lab note: record MIC of "O=C(O)c1ccc(-n2cc(CNc3ccc(Oc4ccccc4)cc3)c(-c3cccc(F)c3)n2)cc1" tested on Enterococcus faecium.
4

Lab note: record MIC of "O=C(O)c1ccc(-n2cc(CNc3ccc(Br)cc3)c(-c3cccc(F)c3)n2)cc1" tested on Enterococcus faecium.
16

New cases:
Lab note: Enterococcus faecium assay, enter MIC for "O=C(O)c1ccc(-n2cc(CNc3cccc(OC(F)(F)F)c3)c(-c3ccc(F)c(F)c3)n2)cc1" here
4

Report the value of MIC obtained on Enterococcus faecium for "O=C(O)c1ccc(-n2cc(CNc3cccc(Cl)c3)c(-c3ccc(F)cc3)n2)cc1" .
32

Param request: MIC | system Enterococcus faecium | item "O=C(O)c1ccc(-n2cc(CNc3cc(C(F)(F)F)cc(C(F)(F)F)c3)c(-c3ccc(F)c(F)c3)n2)cc1"
2

Print Enterococcus faecium MIC for "O=C(O)c1ccc(-n2cc(CNc3cc(Cl)c(F)c(Cl)c3)c(-c3ccc(F)cc3)n2)cc1" .
4

Please tell me the measured MIC for "O=C(O)c1ccc(-n2cc(CNc3cc(F)cc(C(F)(F)F)c3)c(-c3ccc(F)c(F)c3)n2)cc1" ; system: Enterococcus faecium.
4

Find the measured MIC of "O=C(O)c1ccc(-n2cc(CNc3ccc(Br)c(C(F)(F)F)c3)c(-c3ccc(F)c(F)c3)n2)cc1" with Enterococcus faecium as test system.
2

---

Tested on: Staphylococcus aureus
Experiment: Antimicrobial activity against clinical isolate Staphylococcus aureus Smu9 assessed as inhibition of growth measured after 20 to 24 hrs incubation by CLSI method
Type: functional
Details: time 20-24 hrs
Entries and their measured MIC follow.
Number in µg/mL, nothing else.

Write down MIC measured for item "O=C(O)c1ccc(-n2cc(CNc3cc(Br)cc(C(F)(F)F)c3)c(-c3ccc(F)c(F)c3)n2)cc1"
2

Note down MIC recorded for "O=C(O)c1ccc(-n2cc(CNc3ccc(Br)c(C(F)(F)F)c3)c(-c3cccc(F)c3)n2)cc1"
4

For "O=C(O)c1ccc(-n2cc(CNc3cc(Cl)cc(Cl)c3)c(-c3ccc(C(F)(F)F)cc3)n2)cc1" , write its MIC.
1

Name the recorded MIC of the item "O=C(O)c1ccc(-n2cc(CNc3cc(Cl)c(F)c(Cl)c3)c(-c3ccc(C(F)(F)F)cc3)n2)cc1" in your answer.
2

Query compound follows.
Complete the entry with MIC for "O=C(O)c1ccc(-n2cc(CNc3ccc(Cl)c(C(F)(F)F)c3)c(-c3cccc(F)c3)n2)cc1"
2

---

System: Staphylococcus aureus
Experiment: Antimicrobial activity against Staphylococcus aureus ATCC 25923 assessed as inhibition of visible growth measured after 20 to 24 hrs incubation by CLSI method
Format: functional
Details: time 20-24 hrs
Measured MIC values are reported for all entries that follow.

Indicate the recorded MIC value for this compound: "O=C(O)c1ccc(-n2cc(CNc3ccc(F)c(F)c3F)c(-c3ccc(F)c(F)c3)n2)cc1"
> 32 µg/mL

New cases:
Kindly indicate its recorded MIC. Item: "O=C(O)c1ccc(-n2cc(CNc3ccc(F)c(F)c3)c(-c3cccc(F)c3)n2)cc1"
16 µg/mL

Please report the measured MIC for "O=C(O)c1ccc(-n2cc(CNc3cc(Cl)c(F)c(Cl)c3)c(-c3cccc(F)c3)n2)cc1"
1 µg/mL

Provide measured MIC value, entry: "NS(=O)(=O)c1ccc(NCc2cn(-c3ccc(C(=O)O)cc3)nc2-c2ccc(F)cc2)cc1"
> 32 µg/mL

Specify reported MIC for the compound shown: "O=C(O)c1ccc(-n2cc(CNc3ccc(F)c(Cl)c3F)c(-c3ccc(F)c(F)c3)n2)cc1"
4 µg/mL

Hello, please tell me recorded MIC for this one: "O=C(O)c1ccc(-n2cc(CNc3ccc(C(F)(F)F)cc3)c(-c3ccc(F)c(F)c3)n2)cc1"
2 µg/mL

# return recorded MIC for entry "O=C(O)c1ccc(-n2cc(CNc3ccc(Br)c(C(F)(F)F)c3)c(-c3cccc(F)c3)n2)cc1"
1 µg/mL

Fill in reported MIC for this entry: "CC(C)(C)c1ccc(NCc2cn(-c3ccc(C(=O)O)cc3)nc2-c2ccc(F)cc2)cc1"
4 µg/mL

Report measured MIC; entry is "O=C(O)c1ccc(-n2cc(CNc3ccc(Br)cc3)c(-c3ccc(F)c(F)c3)n2)cc1"
> 32 µg/mL

Report MIC for "O=C(O)c1ccc(-n2cc(CNc3cc(Cl)c(F)c(Cl)c3)c(-c3ccc(F)cc3)n2)cc1"
1 µg/mL

In one line, give reported MIC of the entry "O=C(O)c1ccc(-n2cc(CNc3cccc(OC(F)(F)F)c3)c(-c3ccc(F)cc3)n2)cc1" .
4 µg/mL

Indicate its recorded MIC; the compound in question is "O=C(O)c1ccc(-n2cc(CNc3cc(Cl)ccc3Cl)c(-c3cccc(F)c3)n2)cc1"
32 µg/mL

---

Tested on: Staphylococcus aureus
Experiment: Antimicrobial activity against antibiotic-resistant Staphylococcus aureus ATCC 33592 assessed as inhibition of visible growth measured after 20 to 24 hrs incubation by CLSI method
Type: functional
Details: time 20-24 hrs
Property Name: MIC (mg/L)
Give the quantity in mg/L, number only.

Supply reported MIC belonging to this compound: "O=C(O)c1ccc(-n2cc(CNc3ccc(Br)c(C(F)(F)F)c3)c(-c3cccc(F)c3)n2)cc1"
0.5

Give me measured MIC, please, for this compound: "O=C(O)c1ccc(-n2cc(CNc3ccc(F)c(Cl)c3)c(-c3ccc(F)c(F)c3)n2)cc1"
8

Quote MIC reported for "O=C(O)c1ccc(-n2cc(CNc3cc(F)cc(C(F)(F)F)c3)c(-c3ccc(F)c(F)c3)n2)cc1" please.
1

Identify the reported MIC for the following entry. "O=C(O)c1ccc(-n2cc(CNc3cccc(F)c3)c(-c3ccc(F)cc3)n2)cc1"
16

Consider the compound "O=C(O)c1ccc(-n2cc(CNc3cccc(C(F)(F)F)c3)c(-c3ccc(F)c(F)c3)n2)cc1" and give its recorded MIC.
4

Input "O=C(O)c1ccc(-n2cc(CNc3ccccc3)c(-c3ccc(F)c(F)c3)n2)cc1" , output reported MIC.
32

Report MIC for "O=C(O)c1ccc(-n2cc(CNc3cc(Cl)cc(Cl)c3)c(-c3ccc(F)cc3)n2)cc1"
1

Give me measured MIC, please, for this compound: "O=C(O)c1ccc(-n2cc(CNc3ccccc3)c(-c3ccc(F)cc3)n2)cc1"
32

Read the entry "O=C(O)c1ccc(-n2cc(CNc3cccc(Br)c3)c(-c3ccc(F)cc3)n2)cc1" and write its reported MIC.
16

---

Tested on: Enterococcus faecalis
Assay: Antimicrobial activity against antibiotic-resistant Enterococcus faecalis ATCC 51299 assessed as inhibition of visible growth measured after 20 to 24 hrs incubation by CLSI method
Assay type: functional
Details: time 20-24 hrs
A collection of compounds and their measured MIC
Write it as a number; the unit µg/mL goes unstated.

Consider the compound "O=C(O)c1ccc(-n2cc(CNc3ccc(Br)c(Cl)c3)c(-c3ccc(F)cc3)n2)cc1" . State its measured MIC.
8

Give reported MIC value for "O=C(O)c1ccc(-n2cc(CNc3ccc(Oc4ccccc4)cc3)c(-c3cccc(F)c3)n2)cc1"
8

Supply measured MIC of "CC(C)c1ccc(NCc2cn(-c3ccc(C(=O)O)cc3)nc2-c2ccc(F)cc2)cc1" in your reply.
8

Return MIC for the following compound: "O=C(O)c1ccc(-n2cc(CNc3cc(Cl)cc(Cl)c3)c(-c3ccc(F)c(F)c3)n2)cc1"
8

Retrieve MIC measured for "Cc1cc(NCc2cn(-c3ccc(C(=O)O)cc3)nc2-c2ccc(F)cc2)ccc1Br" and print it.
8

Tell us which MIC value is on record for "O=C(O)c1ccc(-n2cc(CNc3ccc(Cl)c(Cl)c3)c(-c3ccc(F)c(F)c3)n2)cc1"
8

Check the records and state MIC for "O=C(O)c1ccc(-n2cc(CNc3cc(Cl)cc(C(F)(F)F)c3)c(-c3ccc(F)c(F)c3)n2)cc1"
2

Let me know recorded MIC for "COc1ccc(NCc2cn(-c3ccc(C(=O)O)cc3)nc2-c2ccc(F)cc2)cc1C(F)(F)F" , thanks.
32

More entries:
Look up and report measured MIC for this entry: "O=C(O)c1ccc(-n2cc(CNc3cc(Cl)c(F)c(Cl)c3)c(-c3ccc(F)cc3)n2)cc1"
4

Tell me measured MIC for "O=C(O)c1ccc(-n2cc(CNc3cc(Br)cc(C(F)(F)F)c3)c(-c3ccc(F)cc3)n2)cc1" please.
2

Tell me its MIC given "O=C(O)c1ccc(-n2cc(CNc3ccc(Br)c(C(F)(F)F)c3)c(-c3ccc(F)cc3)n2)cc1" as the entry.
4

Provide MIC value for the following compound: "O=C(O)c1ccc(-n2cc(CNc3cccc(OC(F)(F)F)c3)c(-c3ccc(F)c(F)c3)n2)cc1"
8

Note MIC for the compound shown: "O=C(O)c1ccc(-n2cc(CNc3ccc(Cl)c(C(F)(F)F)c3)c(-c3ccc(F)cc3)n2)cc1"
8
